Source of measurements: patent US4371537A

test system: rhinovirus type 1A (RV-1A); experiment: Tissue culture testing, rhinovirus type 1A in HeLa cells; format: cell-based; conditions: Enterovirus, 48 and 72 hours, NA = not active at the standard test conditions, read-out: RV-1A: lowest concentration of the compound necessary to cause a 50 percent reduction in cytopathic effect
endpoint: EC50 (µg/mL)
Note: unit µg/mL is implicit; provide only the numeric part.

Below, 2 molecules whose answers are already recorded.
Data request: Value lookup for EC50; key = CSc1cncc(Oc2ccc(Cl)c(Cl)c2)c1 [Example 75]
Data returned: 6.25

Data request: Next entry: CS(=O)(=O)c1ccc(Oc2ccc(Cl)cc2)nc1 [Example 32]
Data returned: 1.25

Pending molecule:
Data request: Value lookup for EC50; key = CS(=O)(=O)c1ccc(Oc2ccc(SC(F)(F)F)cc2)nc1 [Example 27]
Data returned: 12.5
